FYI, the data here is from paper PMC11249646.

molecules and their reported pIC50
Biological target: CIB1 and αIIb interaction (CIB1-GST : F-αIIb peptide) (Homo sapiens, UniProt Q99828)
Construct: made in house; host or cells: BL-21 plus RIL cells (E. coli)
Experiment: FP assay, 1536-well qHTS format (primary and confirmatory screen)
Format: binding
Conditions: qHTS primary screen hits, Table S2; read-out: IC50
pIC50: −log10 of the molar value.
Value Type: pIC50

Nc1c(C(=O)Nc2ccc(F)cc2)sc2nc(-c3cccs3)ccc12.O=C(O)C(F)(F)F [NCGC00371815-01] : 4.10
O=C(O)C1=NC(C(=O)O)CC(/C=C/N2c3cc(O)c(OC4OC(CO)C(O)C(O)C4O)cc3CC2C(=O)O)=C1 (centres unmarked) [NCGC00346734-01] : 4.62
CN(C)c1cnc2c(O)cccc2c1.O=C(O)C(F)(F)F [NCGC00188745-01] : 4.35
Cl.O=c1cc(N2CCOCC2)oc2c(-c3ccccc3)cccc12 [NCGC00261395-01] : 4.30
COc1ccc(NC(=O)c2cccs2)cn1.O=C(O)C(F)(F)F [NCGC00229661-01] : 4.30
N[C@@H](Cc1ccc(Oc2cc(I)c(O)c(I)c2)c(I)c1)C(=O)O [NCGC00344545-01] : 4.40
O=C(Cc1ccc(Cl)c(Cl)c1)Nc1ccc(S(=O)(=O)Nc2nnc(-c3ccccn3)s2)cc1.O=C(O)C(F)(F)F [NCGC00248355-01] : 4.60
C/C(=C\c1ccc2c(c1)OCO2)C1Nc2cccc3cccc(c23)N1 [NCGC00182904-03] : 4.45
CCCCCCCCCCCCCCCC[N+](C)(C)CCN(Cc1ccc(OC)cc1)c1ncccn1.[Br-] [NCGC00016507-05] : 4.10
C[C@]12CC[C@@H]3c4ccc(OC(=O)N(CCCl)CCCl)cc4CC[C@H]3[C@@H]1CC[C@@H]2O [NCGC00164581-02] : 4.30
O=C(O)C(F)(F)F.O=C(O)c1ccc(-c2ccc3ncnc(NCc4cccs4)c3c2)o1 [NCGC00189277-01] : 4.05
Cl.Cl.NC(CO)C(=O)NNCc1ccc(O)c(O)c1O (centres unmarked) [NCGC00015163-09] : 4.30
O=S1(=O)OC(c2ccc(O)cc2)(c2ccc(O)cc2)c2ccccc21 [NCGC00013109-03] : 4.35
O=Cc1ccc(O)c(O)c1O [NCGC00262933-01] : 4.25
CNc1nc2c(s1)C(c1ccc(OC)cc1OC)CC(=O)N2.O=C(O)C(F)(F)F (centres unmarked) [NCGC00488262-02] : 4.25
CC(C)(O)CCc1ccc(OCc2cc(-c3cccc(OC(F)F)c3)c3ncccc3c2)cc1 [NCGC00249759-02] : 4.62
COc1cccc2nc3c(C(=O)NCCN(C)C)cccc3cc12.O=C(O)C(F)(F)F [NCGC00371843-01] : 4.30

====

Biological target: GST-CIB1 : F-scrambled peptide (Homo sapiens, UniProt Q99828)
Construct: made in house; host or cells: BL-21 plus RIL cells (E. coli)
Experiment: FP scrambled-peptide counter screen, 384-well format
Assay type: binding
Settings: F-scrambled peptide
molecules and their reported 384-well COUNTERSCREEN Efficacy (%)
Value Type: 384-well COUNTERSCREEN Efficacy (%)

Cc1cc(S(=O)(=O)Nc2cnccc2C(=O)Nc2nc(-c3ccccc3)cs2)c(C)o1.O=C(O)C(F)(F)F : 16
Cc1ccc(S(=O)(=O)Nc2cnccc2C(=O)Nc2nc(-c3ccc(C)c(C)c3)cs2)cc1.O=C(O)C(F)(F)F : 37
Cc1ccc(S(=O)(=O)Nc2nn3c(=O)c4ccccc4nc3s2)cc1C.O=C(O)C(F)(F)F : 12
CN(C)[C@@H]1CCN(c2cccc(Nc3nn4c(=O)c5ccccc5nc4s3)c2)C1.Cl : 34
Cc1cc(Nc2c(Nc3nnc(-c4ccncc4)s3)c(=O)c2=O)ccc1Cl.O=C(O)C(F)(F)F : 64
COc1ccc(C(=O)Nc2nc(-c3ccccc3)cs2)c(NS(=O)(=O)c2ccc(C)cc2)c1.O=C(O)C(F)(F)F : 102
Cc1ccccc1S(=O)(=O)Nc1cnccc1C(=O)Nc1nc(-c2ccccc2)cs1.O=C(O)C(F)(F)F : 20
CCN(CC)C(=S)SSC(=S)N(CC)CC [NCGC00016000-13, disulfiram, reference compound] : 34
C=CCNc1oc(-c2cccc3ccccc23)nc1C#N.O=C(O)C(F)(F)F : 51
Cc1ccc(S(=O)(=O)Nc2cnccc2C(=O)Nc2nc3ccccc3s2)cc1.O=C(O)C(F)(F)F : 16
O=C(O)C1=NC(C(=O)O)CC(/C=C/N2c3cc(O)c(OC4OC(CO)C(O)C(O)C4O)cc3CC2C(=O)O)=C1 (centres unmarked) : 10
Nc1c(S(=O)(=O)[O-])cc(Nc2ccc(Nc3nc(Cl)nc(Nc4ccc(S(=O)(=O)O)cc4)n3)c(S(=O)(=O)O)c2)c2c1C(=O)c1ccccc1C2=O.[Na+] : 60
Cc1ccc(-c2csc(NC(=O)c3ccncc3NS(=O)(=O)c3ccc(C)cc3)n2)cc1.O=C(O)C(F)(F)F : 70
CCOC(=O)N1CCN([N+]([O-])=NOc2ccc([N+](=O)[O-])cc2[N+](=O)[O-])CC1 : 48

====

Biological target: CIB1 and αIIb interaction (CIB1-GST : F-αIIb peptide) (Homo sapiens)
Construct: made in house; host or cells: BL-21 plus RIL cells (E. coli)
Assay: FP assay, 1536-well qHTS format (primary and confirmatory screen)
Type: binding
Conditions: confirmatory screen
Value Type: CONFIRMATORY SCREEN Efficacy (%)

O=C(O)CCNc1cc(N2CCc3ccccc3CC2)nc(-c2ccccn2)n1 : -28
O=C(O)C(F)(F)F.O=C1Nc2ccccc2/C1=N/NC(=S)Nc1c(F)cc(F)cc1F : -26
O=C(O)C(F)(F)F.O=C(O)c1ccc(O)c2ncc(N3CCC(N4CCOCC4)C3)cc12 (centres unmarked) : -17
CC(OC(=O)c1ccc(S(C)(=O)=O)c([N+](=O)[O-])c1)C(=O)NC1C2CC3CC(C2)CC1C3 (centres unmarked) : -32
CC(O)c1ccc(-c2ccc3ncnc(N4CCOCC4)c3c2)o1.O=C(O)C(F)(F)F (centres unmarked) : -26

====

molecules and their reported Curve Class (confirmatory screen)
Molecular target: CIB1 and αIIb interaction (CIB1-GST : F-αIIb peptide) (Homo sapiens, UniProt Q99828)
Construct: made in house; host or cells: BL-21 plus RIL cells (E. coli)
Assay: FP assay, 1536-well qHTS format (primary and confirmatory screen)
Format: binding
Details: confirmatory screen, qHTS curve class; negative sign = inhibitory curve
Value Type: Curve Class (confirmatory screen)

CCCC(=O)c1cc(O)c(O)cc1O : -1.1
COc1ccc(C(=O)c2no[n+]([O-])c2C(=O)c2ccc(OC)cc2)cc1.O=C(O)C(F)(F)F : -1.4
C=C1C(=O)O[C@@H]2[C@H]3C(C)=CC(=O)C3=C(C)[C@@H](OC(=O)/C(C)=C\C)[C@H](O)[C@@H]12 : -1.2
Cc1cccc(C(=O)c2no[n+]([O-])c2C(=O)c2cccc(C)c2)c1.O=C(O)C(F)(F)F : -2.2

====

Biological target: CIB1 and αIIb interaction (CIB1-GST : F-αIIb peptide) (Homo sapiens, UniProt Q99828)
Construct: made in house; host or cells: BL-21 plus RIL cells (E. coli)
Sequence (Q99828 1-191): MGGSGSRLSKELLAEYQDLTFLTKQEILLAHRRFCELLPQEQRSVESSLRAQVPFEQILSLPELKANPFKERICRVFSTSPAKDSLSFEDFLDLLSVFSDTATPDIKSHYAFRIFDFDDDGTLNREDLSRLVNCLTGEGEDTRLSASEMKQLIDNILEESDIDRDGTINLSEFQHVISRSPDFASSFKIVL
Test: FP assay, 1536-well qHTS format (primary and confirmatory screen)
Format: binding
Conditions: qHTS primary screen hits, Table S2; read-out: IC50
Value Type: IC50

O=C(Nc1nc(-c2ccccc2)cs1)c1ccncc1NS(=O)(=O)c1cccc2cccnc12.O=C(O)C(F)(F)F : 39.8 µM
CCOC(=O)OC(C)OC(=O)c1csc(-n2nc(-c3ccc(F)c(F)c3)cc2O)n1.O=C(O)C(F)(F)F (stereo not shown) : 79.4 µM
Cc1ccc(-c2cc(-c3nn(-c4nc(C(=O)O)cs4)c(CC4CC4)c3Cc3ccc(S(N)(=O)=O)c(F)c3)ccc2F)o1 : 22.4 µM
O=C(Nc1nc(-c2ccccc2)cs1)c1ccncc1NS(=O)(=O)c1ccc(F)c(F)c1.O=C(O)C(F)(F)F : 79.4 µM
NS(=O)(=O)c1ccc(Cc2c(-c3cccc(-c4ccccc4F)c3)nn(-c3nc(C(=O)O)cs3)c2O)cc1.O=C(O)C(F)(F)F : 79.4 µM
Cc1ccc(S(=O)(=O)Nc2ccc(OC(F)(F)F)cc2C(=O)Nc2nc(-c3ccccc3)cs2)cc1.O=C(O)C(F)(F)F : 44.7 µM
Cc1ccc(N)cc1O : 126 µM
